System: HCV replicon
Assay: HCV replicon assay (Clone A cells and ET-lunet cells, HCV RNA by real time PCR)
Assay type: cell-based, hepatitis C virus
Conditions: Hepatitis C virus, Table 4; cyclic phosphates, diastereomeric mixtures; read-out: EC50, anti-HCV 1b activity
reported.property: pEC50
pEC50 here is simply -log10 of the concentration when that concentration is written in mol/L.

### Prompt Query (compound): COc1nc(N)nc2c1ncn2C1OC2COP(=O)(OC3CCCC3)O[C@H]2[C@]12CCO2 (stereo partly shown) ; field requested: pEC50
### Response 4.85

* * *

Biological target: wild type NS5B Genotype 1b (Hepatitis C virus genotype 1b (isolate Con1) (HCV))
Sequence (Q9WMX2 2420-3010): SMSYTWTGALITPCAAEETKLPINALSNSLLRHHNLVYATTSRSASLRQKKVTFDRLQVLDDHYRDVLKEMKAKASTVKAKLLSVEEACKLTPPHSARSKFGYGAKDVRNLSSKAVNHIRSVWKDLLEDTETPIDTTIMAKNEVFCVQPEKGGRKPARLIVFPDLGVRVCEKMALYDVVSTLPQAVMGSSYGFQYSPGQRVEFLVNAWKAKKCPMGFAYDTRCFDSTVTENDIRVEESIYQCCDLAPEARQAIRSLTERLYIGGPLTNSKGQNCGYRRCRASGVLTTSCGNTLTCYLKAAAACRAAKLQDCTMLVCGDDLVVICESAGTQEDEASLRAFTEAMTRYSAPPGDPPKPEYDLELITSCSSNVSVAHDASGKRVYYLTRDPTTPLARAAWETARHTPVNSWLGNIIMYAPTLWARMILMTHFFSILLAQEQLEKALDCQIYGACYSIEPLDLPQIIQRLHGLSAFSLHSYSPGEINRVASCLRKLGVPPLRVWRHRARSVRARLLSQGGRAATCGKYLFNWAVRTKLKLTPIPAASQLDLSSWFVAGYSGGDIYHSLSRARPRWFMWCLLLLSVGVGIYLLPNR
Test: HCV NS5B polymerase reaction, wild type
Details: Table 5, nucleoside triphosphates
Entries annotated with measured IC50

Consider the reported IC50 for these compounds:
{"compound": "Nc1ccn(C2OC(CO)[C@@H](O)[C@]23CCCO3)c(=O)n1 (stereo partly drawn)", "experimental.target": "wild type NS5B Genotype 1b (Hepatitis C virus genotype 1b (isolate Con1) (HCV))", "IC50": "> 45.3 µM"}
{"compound": "Nc1ccn(C2OC(CO)[C@@H](O)[C@]23CCO3)c(=O)n1 (stereo partly drawn)", "experimental.target": "wild type NS5B Genotype 1b (Hepatitis C virus genotype 1b (isolate Con1) (HCV))", "IC50": "> 8.48 µM"}
{"compound": "Nc1ccn(C2OC(CO)[C@@H](O)[C@@]23CCO3)c(=O)n1 (stereo partly drawn)", "experimental.target": "wild type NS5B Genotype 1b (Hepatitis C virus genotype 1b (isolate Con1) (HCV))", "IC50": "> 100 µM"}
{"compound": "O=c1ccn(C2OC(CO)[C@@H](O)[C@@]23CCCO3)c(=O)[nH]1 (stereo partly drawn)", "experimental.target": "wild type NS5B Genotype 1b (Hepatitis C virus genotype 1b (isolate Con1) (HCV))", "IC50": "> 100 µM"}
{"compound": "Nc1ccn(C2OC(CO)[C@@H](O)[C@@]23CCCO3)c(=O)n1 (stereo partly drawn)", "experimental.target": "wild type NS5B Genotype 1b (Hepatitis C virus genotype 1b (isolate Con1) (HCV))", "IC50": "> 100 µM"}

Next compound, IC50 to be filled in.
### Prompt Dear colleague, I am looking for the recorded IC50 of the following compound: O=c1ccn(C2OC(CO)[C@@H](O)[C@]23CCO3)c(=O)[nH]1 (stereo partly drawn)
### Response 39.4 µM

src = patent US9394331B2
